molecular target: HLA-A*02:01 (Homo sapiens, UniProt P04439, D140Y/D185E/D98H/E176V/E277Q/G131W/G231S/I119V/I121R/I166T/I218V/L300P/L318F/N151K/N90K/P208A/P217A/Q86G/Q94H/R138H/R169H/T345S); assay: REVEAL Epitope Discovery System in vitro MHC-peptide binding assay; details: binding normalized to positive control peptide set at 100%, greater than 50 considered good or high affinity binding
No end group written: not given here.
Measured Quantity: A*02:01 In Vitro Score

Some sequences with recorded A*02:01 In Vitro Score:
IIFWVKRGA; 85.90
FWVQRGRKK; 5.20
WVKRGRKKA; 4.50

[a] AFIIFWVAR
[b] FWVKRGRKK
[c] VAFIIFWVK
[d] IFWVARGRK
[e] IIFWVKRGH
List by increasing A*02:01 In Vitro Score. Write out the labels following the order that was asked for.
c, d, a, b, e
(c: 0.70, d: 1.00, a: 2.20, b: 3.50, e: 5.30)

[A] IFWVKRGSK
[B] FWVKRGAKK
Lowest A*02:01 In Vitro Score? choose A or B Mark your answer with the label of the selected entry.
A
